- EXPERIMENT: Measurement of LogD (CHI logD by HPLC)
- Type: physicochemical
- CONDITION NOTES: CHI log D, 50 mM ammonium acetate pH 7.4 / acetonitrile gradient, C-18 column, 25° C.
No end group written: not given here.
REPORTED PROPERTY: chromatographic logD

SUBSTANCE	chromatographic logD
GPAKPEAPGEDASPDELMHYYTSLEDYLDHVP-NH2 (C-terminus assumed) [Compound 18]	0.52
GPAKPEAPGEDASPDELIFYYDHLSRYLTDVA-NH2 (C-terminus assumed) [Compound 20]	0.91
GPAKPEAPGEDASPTELYYYYDHLTDYLDVVP-NH2 (C-terminus assumed) [Compound 24]	0.66
GPAKPEAPGEDASPDELYYYYDDLRQYLSTVA-NH2 (C-terminus assumed) [Compound 23]	0.81
GPAKPEAPGEDASPIELWEYYESLETYLDNVA-NH2 (C-terminus assumed) [Compound 29]	0.73
GPAKPEAPGEDASPDELIHYYNSLDEYLYEVA-NH2 (C-terminus assumed) [Compound 16]	0.53
GPAKPEAPGEDASPNELYYYYDELHYYLHDVA-NH2 (C-terminus assumed) [Compound 25]	0.59
GPAKPEAPGEDASPDELTYYYDELRDYLYSVA-NH2 (C-terminus assumed) [Compound 19]	0.82
GPAKPEAPGEDASPDELHHYYQNLETYLYRVA-NH2 (C-terminus assumed) [Compound 15]	0.82
GPAKPEAPGEDASPNELHYYYWELDSYLENVA-NH2 (C-terminus assumed) [Compound 27]	0.64

Entry source: patent US12398178B2
